Target: HLA-B*53:01
Experiment: IEDB peptide-MHC binding, purified MHC/competitive/radioactivity; filed as Kd, often an IC50 or EC50 that approximates it; bounds were set here for any values at or beyond the usual limits of such assays
Conditions: source organism: Dengue virus 4 Philippines/H241/1956
Consider the following sequences and their measured Kd readings.
Number in nM, nothing else.

Please review the entries below; each comes with its answer.
WVAEIQPQW; 6.52
VTMTLWYMW; 2540

Moving on to another sequence below.
Exercise: Retrieve Kd measured for FSMGLLCLTL and print it.
Key: 333

* * *

Molecular target: HLA-A*03:01
Assay: IEDB peptide-MHC binding, purified MHC/direct/fluorescence; filed as Kd, often an IC50 or EC50 that approximates it; bounds were set here for any values at or beyond the usual limits of such assays
Details: source organism: Brucella suis 1330
pKd: −log10 of the molar value.
property.measured: pKd

Exercise: Quickly give me recorded pKd for DPPEPLVRI
Key: ≤ 4.70
